- TESTED TARGET: BChE from equine serum (eqBChE) (Equus caballus, UniProt P81908)
- Construct: butyrylcholinesterase (eqBChE, from equine serum); purchased Sigma-Aldrich; host or cells: equine serum
- Sequence (P81908 whole entry): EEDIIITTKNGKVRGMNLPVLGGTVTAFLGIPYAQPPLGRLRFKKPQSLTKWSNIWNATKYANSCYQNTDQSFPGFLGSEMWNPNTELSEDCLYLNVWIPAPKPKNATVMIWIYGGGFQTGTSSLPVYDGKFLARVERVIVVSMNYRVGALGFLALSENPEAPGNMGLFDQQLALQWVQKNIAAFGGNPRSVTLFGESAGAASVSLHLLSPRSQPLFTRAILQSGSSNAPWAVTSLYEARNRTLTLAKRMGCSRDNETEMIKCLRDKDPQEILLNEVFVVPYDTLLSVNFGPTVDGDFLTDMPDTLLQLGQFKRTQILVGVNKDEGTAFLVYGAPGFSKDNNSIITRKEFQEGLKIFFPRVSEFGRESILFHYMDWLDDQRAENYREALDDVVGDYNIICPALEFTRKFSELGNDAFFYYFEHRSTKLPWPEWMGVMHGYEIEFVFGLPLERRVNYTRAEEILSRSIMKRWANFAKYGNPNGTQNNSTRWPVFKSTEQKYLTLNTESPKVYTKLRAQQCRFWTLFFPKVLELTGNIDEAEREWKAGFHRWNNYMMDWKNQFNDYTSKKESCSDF
- ASSAY NAME: biochemical
- CONDITION DETAILS: BChE from equine serum, mean ± SD, n=3; read-out: IC50 (μM) BChE
// NB: equality with 70 µM counts as No; only IC50 strictly below is Yes

smiles_string=COc1ccc(/C=C/C(=O)N2CCN(C(=O)c3cc(Cc4n[nH]c(=O)c5ccccc45)ccc3F)CC2)cc1 answer_label=No
smiles_string=O=C(/C=C/c1ccc(Br)cc1)N1CCN(C(=O)c2cc(Cc3n[nH]c(=O)c4ccccc34)ccc2F)CC1 answer_label=Yes
smiles_string=O=C(/C=C/c1ccc(C(F)(F)F)cc1)N1CCN(C(=O)c2cc(Cc3n[nH]c(=O)c4ccccc34)ccc2F)CC1 answer_label=Yes
smiles_string=COc1cc(/C=C/C(=O)N2CCN(C(=O)c3cc(Cc4n[nH]c(=O)c5ccccc45)ccc3F)CC2)cc(OC)c1OC answer_label=Yes
smiles_string=O=C(/C=C/c1ccccc1)N1CCN(C(=O)c2cc(Cc3n[nH]c(=O)c4ccccc34)ccc2F)CC1 answer_label=Yes

* * *

- TESTED TARGET: BChE from equine serum (eqBChE) (Equus caballus)
- Construct: butyrylcholinesterase (eqBChE, from equine serum); purchased Sigma-Aldrich; host or cells: equine serum
- ASSAY NAME: biochemical
- CONDITION DETAILS: BChE from equine serum, mean ± SD, n=3; read-out: IC50 (μM) BChE
Each entry below carries its recorded IC50.
MEASURED QUANTITY: IC50 (µM)

molecule="COc1ccc(OC)c(/C=C/C(=O)N2CCN(C(=O)c3cc(Cc4n[nH]c(=O)c5ccccc45)ccc3F)CC2)c1 [5f]" tested_target="BChE from equine serum (eqBChE) (Equus caballus)" recorded_number=35.7
molecule="O=C(/C=C/c1cccc(F)c1)N1CCN(C(=O)c2cc(Cc3n[nH]c(=O)c4ccccc34)ccc2F)CC1 [5i]" tested_target="BChE from equine serum (eqBChE) (Equus caballus)" recorded_number=33.4
molecule="O=C(/C=C/c1ccc(Cl)cc1)N1CCN(C(=O)c2cc(Cc3n[nH]c(=O)c4ccccc34)ccc2F)CC1 [5j]" tested_target="BChE from equine serum (eqBChE) (Equus caballus)" recorded_number=37.1
molecule="Cc1ccc(/C=C/C(=O)N2CCN(C(=O)c3cc(Cc4n[nH]c(=O)c5ccccc45)ccc3F)CC2)cc1 [5d]" tested_target="BChE from equine serum (eqBChE) (Equus caballus)" recorded_number=27.8

* * *

- TESTED TARGET: AChE from electric eel (EeAChE) (Electrophorus electricus, UniProt O42275)
- Construct: purchased Sigma-Aldrich
- Sequence (O42275 24-633): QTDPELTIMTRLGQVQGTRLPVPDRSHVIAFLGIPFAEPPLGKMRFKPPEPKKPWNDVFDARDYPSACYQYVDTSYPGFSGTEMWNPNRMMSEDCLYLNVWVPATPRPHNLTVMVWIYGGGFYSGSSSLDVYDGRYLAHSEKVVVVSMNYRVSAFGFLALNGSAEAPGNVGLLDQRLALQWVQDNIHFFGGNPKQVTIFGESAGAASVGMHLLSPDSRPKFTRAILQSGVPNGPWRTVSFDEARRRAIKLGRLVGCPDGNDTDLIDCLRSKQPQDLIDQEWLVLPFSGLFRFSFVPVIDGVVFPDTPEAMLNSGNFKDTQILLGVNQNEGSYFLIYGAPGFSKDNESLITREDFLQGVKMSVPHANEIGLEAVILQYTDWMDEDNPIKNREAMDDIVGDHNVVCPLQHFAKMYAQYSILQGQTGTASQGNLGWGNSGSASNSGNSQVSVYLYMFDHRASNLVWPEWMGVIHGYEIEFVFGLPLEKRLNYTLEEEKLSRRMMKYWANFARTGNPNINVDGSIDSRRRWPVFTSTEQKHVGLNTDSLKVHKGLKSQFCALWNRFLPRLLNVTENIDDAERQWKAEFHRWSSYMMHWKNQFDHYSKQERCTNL
- ASSAY NAME: biochemical
- CONDITION DETAILS: AChE from electric eel, mean ± SD, n=3; read-out: IC50 (μM) AChE
Each entry below carries its recorded IC50.
MEASURED QUANTITY: IC50 (µM)

molecule="O=C(/C=C/c1cccc([N+](=O)[O-])c1)N1CCN(C(=O)c2cc(Cc3n[nH]c(=O)c4ccccc34)ccc2F)CC1 [5l]" unit_tag=µM recorded_number=24.6
molecule="COc1ccccc1/C=C/C(=O)N1CCN(C(=O)c2cc(Cc3n[nH]c(=O)c4ccccc34)ccc2F)CC1 [5e]" unit_tag=µM recorded_number=56.9
molecule="O=C(/C=C/c1ccc(C(F)(F)F)cc1)N1CCN(C(=O)c2cc(Cc3n[nH]c(=O)c4ccccc34)ccc2F)CC1 [5h]" unit_tag=µM recorded_number=136
molecule="COc1ccc(/C=C/C(=O)N2CCN(C(=O)c3cc(Cc4n[nH]c(=O)c5ccccc45)ccc3F)CC2)cc1OC [5b]" unit_tag=µM recorded_number=45.2
molecule="O=C(/C=C/c1ccc(F)cc1)N1CCN(C(=O)c2cc(Cc3n[nH]c(=O)c4ccccc34)ccc2F)CC1 [5g]" unit_tag=µM recorded_number=173
molecule="O=C(/C=C/c1ccc(Br)cc1)N1CCN(C(=O)c2cc(Cc3n[nH]c(=O)c4ccccc34)ccc2F)CC1 [5k]" unit_tag=µM recorded_number=80.7
molecule="O=C(/C=C/c1ccccc1)N1CCN(C(=O)c2cc(Cc3n[nH]c(=O)c4ccccc34)ccc2F)CC1 [5a]" unit_tag=µM recorded_number=52.9

* * *

- TESTED TARGET: PARP-1 enzyme (Homo sapiens, UniProt P09874)
- Construct: purchased Trevigen 4690–096-K
- Sequence (P09874 whole entry): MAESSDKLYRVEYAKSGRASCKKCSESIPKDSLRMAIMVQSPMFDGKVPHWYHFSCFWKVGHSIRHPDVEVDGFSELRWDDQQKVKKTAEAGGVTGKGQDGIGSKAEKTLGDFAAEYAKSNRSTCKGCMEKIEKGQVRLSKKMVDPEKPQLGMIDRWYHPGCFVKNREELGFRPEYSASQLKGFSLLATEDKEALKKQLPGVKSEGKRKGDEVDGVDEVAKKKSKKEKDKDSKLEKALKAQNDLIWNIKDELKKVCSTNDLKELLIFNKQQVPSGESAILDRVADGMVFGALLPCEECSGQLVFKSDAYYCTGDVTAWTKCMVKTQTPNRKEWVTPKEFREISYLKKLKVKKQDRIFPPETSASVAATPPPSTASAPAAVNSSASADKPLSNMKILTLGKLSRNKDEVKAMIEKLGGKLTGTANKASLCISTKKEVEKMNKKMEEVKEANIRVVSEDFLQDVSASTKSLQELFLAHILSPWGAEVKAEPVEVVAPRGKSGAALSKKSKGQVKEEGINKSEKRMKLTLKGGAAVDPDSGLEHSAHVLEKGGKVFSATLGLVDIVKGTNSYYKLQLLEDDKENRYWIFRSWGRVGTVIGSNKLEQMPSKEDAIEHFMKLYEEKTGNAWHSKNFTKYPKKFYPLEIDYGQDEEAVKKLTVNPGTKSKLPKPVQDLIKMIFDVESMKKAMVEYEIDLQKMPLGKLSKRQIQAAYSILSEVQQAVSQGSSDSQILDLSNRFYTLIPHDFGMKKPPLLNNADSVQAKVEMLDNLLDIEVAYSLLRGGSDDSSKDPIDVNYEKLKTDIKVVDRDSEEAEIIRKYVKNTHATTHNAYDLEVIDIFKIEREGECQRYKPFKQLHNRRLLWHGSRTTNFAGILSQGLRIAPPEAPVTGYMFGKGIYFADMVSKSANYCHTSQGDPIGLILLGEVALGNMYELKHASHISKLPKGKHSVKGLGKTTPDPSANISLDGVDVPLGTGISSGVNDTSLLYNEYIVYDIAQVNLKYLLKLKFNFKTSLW
- ASSAY NAME: biochemical
- CONDITION DETAILS: PARP-1, measured at the conc. of 0.5 μM, mean ± SD, n=3; read-out: Inhibition rate (%)
MEASURED QUANTITY: inhibition at 0.5 µM (%)

smiles_string=COc1ccc(/C=C/C(=O)N2CCN(C(=O)c3cc(Cc4n[nH]c(=O)c5ccccc45)ccc3F)CC2)cc1OC recorded_number=77.2
smiles_string=O=C(/C=C/c1cccc(F)c1)N1CCN(C(=O)c2cc(Cc3n[nH]c(=O)c4ccccc34)ccc2F)CC1 recorded_number=88.2
smiles_string=O=C(/C=C/c1cccc([N+](=O)[O-])c1)N1CCN(C(=O)c2cc(Cc3n[nH]c(=O)c4ccccc34)ccc2F)CC1 recorded_number=95.7
smiles_string=O=C(/C=C/c1ccc([N+](=O)[O-])cc1)N1CCN(C(=O)c2cc(Cc3n[nH]c(=O)c4ccccc34)ccc2F)CC1 recorded_number=93.2

* * *

- TESTED TARGET: PARP-1 enzyme (Homo sapiens, UniProt P09874)
- Construct: purchased Trevigen 4690–096-K
- ASSAY NAME: biochemical
- CONDITION DETAILS: PARP-1, measured at the conc. of 0.5 μM, mean ± SD, n=3; read-out: Inhibition rate (%)
MEASURED QUANTITY: inhibition at 0.5 µM (%)

smiles_string=O=C(/C=C/c1ccc(Cl)cc1)N1CCN(C(=O)c2cc(Cc3n[nH]c(=O)c4ccccc34)ccc2F)CC1 unit_tag=% recorded_number=75.5
smiles_string=O=C(/C=C/c1ccco1)N1CCN(C(=O)c2cc(Cc3n[nH]c(=O)c4ccccc34)ccc2F)CC1 unit_tag=% recorded_number=65.2
smiles_string=Cc1ccc(/C=C/C(=O)N2CCN(C(=O)c3cc(Cc4n[nH]c(=O)c5ccccc45)ccc3F)CC2)cc1 unit_tag=% recorded_number=64.2
smiles_string=COc1ccc(/C=C/C(=O)N2CCN(C(=O)c3cc(Cc4n[nH]c(=O)c5ccccc45)ccc3F)CC2)cc1 unit_tag=% recorded_number=89.2
smiles_string=O=C(/C=C/c1ccc(Br)cc1)N1CCN(C(=O)c2cc(Cc3n[nH]c(=O)c4ccccc34)ccc2F)CC1 unit_tag=% recorded_number=43.2
smiles_string=O=C(/C=C/c1ccc(C(F)(F)F)cc1)N1CCN(C(=O)c2cc(Cc3n[nH]c(=O)c4ccccc34)ccc2F)CC1 unit_tag=% recorded_number=89.5
smiles_string=COc1cc(/C=C/C(=O)N2CCN(C(=O)c3cc(Cc4n[nH]c(=O)c5ccccc45)ccc3F)CC2)cc(OC)c1OC unit_tag=% recorded_number=66

Hey, just so you know, these numbers are from paper PMC6237161.
